Recorded values, source patent US4341768A.

assay-explanation: Acute toxicity in mice
Format: in vivo
recorded-conditions: mouse, in vivo, sc, subcutaneous
Bridge positions count the residues as written; N and C are the ends. Square brackets hold non-standard residues; d marks the D form. Peptide text beside a SMILES is read from it. * marks the point of attachment. X1 = CCC(C)CCCCC(O)CC(=O)*; dDab = NCC[C@@H](N)C(=O)O; Dab = NCC[C@H](N)C(=O)O
Listed compounds paired with reported LD50
property-name: LD50 (mg/kg)

- compound: "CC(C)C[C@@H]1NC(=O)[C@H](CCN)NC(=O)[C@H](CCN)NC(=O)[C@H](CC(C)C)NC(=O)[C@@H](Cc2ccccc2)NC(=O)[C@H](CCN)NC(=O)[C@@H](NC(=O)[C@H](N)CCN)CCNC1=O [Bu-2470A] (H-[dDab][Dab][Dab][dF]L[Dab][Dab]L; lactam 2-C)"
  property-name: "LD50"
  numeric-result: 56
- compound: "CCC(C)CCCCC(O)CC(=O)N[C@H](CCN)C(=O)N[C@H]1CCNC(=O)[C@H](CC(C)C)NC(=O)[C@H](CCN)NC(=O)[C@H](CCN)NC(=O)[C@H](CC(C)C)NC(=O)[C@@H](Cc2ccccc2)NC(=O)[C@H](CCN)NC1=O (some centres unmarked) [Bu-2470B1] (X1-[dDab][Dab][Dab][dF]L[Dab][Dab]L; lactam 2-C)"
  property-name: "LD50"
  numeric-result: 280

====

assay-explanation: Acute toxicity in mice
Type: in vivo
recorded-conditions: mouse, in vivo, intravenous
Bridge positions count the residues as written; N and C are the ends. Square brackets hold non-standard residues; d marks the D form. Peptide text beside a SMILES is read from it. * marks the point of attachment. X1 = CCC(C)CCCCC(O)CC(=O)*; dDab = NCC[C@@H](N)C(=O)O; Dab = NCC[C@H](N)C(=O)O
property-name: LD50 (mg/kg)

- molecule: "CC(C)C[C@@H]1NC(=O)[C@H](CCN)NC(=O)[C@H](CCN)NC(=O)[C@H](CC(C)C)NC(=O)[C@@H](Cc2ccccc2)NC(=O)[C@H](CCN)NC(=O)[C@@H](NC(=O)[C@H](N)CCN)CCNC1=O [Bu-2470A] (H-[dDab][Dab][Dab][dF]L[Dab][Dab]L; lactam 2-C)"
  numeric-result: 35
- molecule: "CCC(C)CCCCC(O)CC(=O)N[C@H](CCN)C(=O)N[C@H]1CCNC(=O)[C@H](CC(C)C)NC(=O)[C@H](CCN)NC(=O)[C@H](CCN)NC(=O)[C@H](CC(C)C)NC(=O)[C@@H](Cc2ccccc2)NC(=O)[C@H](CCN)NC1=O (some centres unmarked) [Bu-2470B1] (X1-[dDab][Dab][Dab][dF]L[Dab][Dab]L; lactam 2-C)"
  numeric-result: 35
